system: NCI-H322M lung; test: NCI-60 one-dose screen, 48 h (100 = growth as untreated, 0 = no growth, -100 = all killed); conditions: 10 µM unless noted
About 83,000 compounds went through this panel and 20% of them were active in at least one assay; those are over-represented in the sample as a whole.
// reported growth per item

{"Molecule": "Cc1nn(-c2ccc(Cl)cc2)c2nc3c(nc12)C(=O)C(=O)c1ccccc1-3", "Experimental System": "NCI-H322M lung", "growth [%]": 65.1}
{"Molecule": "Cc1cc(NCCCNc2ccnc3cc(Cl)ccc23)nc(N2CCN(C)CC2)n1", "Experimental System": "NCI-H322M lung", "growth [%]": 56.4}
{"Molecule": "Fc1ccc(-c2nnc(-c3c(-c4ccc(F)cc4)nc4ncccn34)o2)cc1", "Experimental System": "NCI-H322M lung", "growth [%]": 105}
{"Molecule": "COc1ccc(C2=NN(C(=O)c3cc(OC)c(OC)c(OC)c3)C(c3ccc(C#N)cc3)C2)cc1OC (stereo not given)", "Experimental System": "NCI-H322M lung", "growth [%]": 36.9}
{"Molecule": "O=[N+]([O-])c1ccc2c(c1)S(=O)c1cc([N+](=O)[O-])ccc1N2", "Experimental System": "NCI-H322M lung", "growth [%]": 117}
{"Molecule": "c1ccc(-c2nn[nH]n2)c(-c2ccc(CN3CCN(c4nsc5ccccc45)CC3)cc2)c1", "Experimental System": "NCI-H322M lung", "growth [%]": 96.7}
{"Molecule": "O=Nc1ccc(O)c(=O)cc1", "Experimental System": "NCI-H322M lung", "growth [%]": 88.3}
{"Molecule": "c1cnc2ccc3ncccc3c2c1", "Experimental System": "NCI-H322M lung", "growth [%]": 117}
{"Molecule": "CCn1c2ccccc2c2ccc(C(C)=O)cc21", "Experimental System": "NCI-H322M lung", "growth [%]": 126}
{"Molecule": "Oc1[nH]c2ccc(Cl)cc2c1/C=c1/ccc2c(c1)N=C(c1ccc(C(F)(F)F)cc1)N=2", "Experimental System": "NCI-H322M lung", "growth [%]": 84.3}

The origin of these recorded values is PubChem BioAssay (NCI).
